System: SW-620
Test: NCI tumour cell line growth inhibition, 48 h
Active and inactive are the calls of the source. No stated cut-off is given here; in the data, active = GI50 up to about 1.1 µM and inactive = higher.
Please provide measured GI50 for the entries that follow.

Quick one: GI50 of COc1nc2c(c(=O)[nH]1)N=C(c1ccccc1)CC(c1ccccc1)N2 (stereo not drawn) ?
35.7 µM (inactive)

GI50 lookup needed for O=C(NC(Cc1ccc(Cl)cc1)C(=O)O)c1ccc(I)cc1 (stereo not drawn) , thanks.
> 100 µM (inactive)

Record request: GI50 value, item O=C(NNCc1ccccc1O)c1ccccc1O
3.48 µM (inactive)

If you can, please state the reported GI50 value of COC(=O)C1=C(O)CCCC(CCC(C)=O)=C1 .
31.6 µM (inactive)

Name the recorded GI50 for CC(C)CCNc1ncnc2[nH]ncc12 .
> 100 µM (inactive)

Given the entry CCN(CC)CCO[Si](OCCN(CC)CC)(OCCN(CC)CC)OCCN(CC)CC , report its measured GI50.
> 100 µM (inactive)

Param item = CCOC(=O)C1=C(C)N(c2ccc(C)cc2)C2=C(C(=O)N(c3ccccc3)C2c2ccccc2)C1c1ccccc1 (stereo not drawn) ; retrieve measured GI50.
> 25 µM (inactive)

What GI50 value was documented for this compound, CCOC(=O)C1C(=O)CC1(C)C (stereo not drawn) ?
> 10 µM (inactive)

====

System: NCI-H226
Experiment: NCI tumour cell line growth inhibition, 48 h
Active and inactive are the calls of the source. Cut-off read from the data, not from the text of the source: active = GI50 up to about 1.1 µM and inactive = higher.
Result category, one only: active, inactive

Entry CCCC[Si](CCCC)(CCCC)O[C@@H](/C=C/C(=O)OCC)[C@H](Cc1ccccc1)O[Si](CCCC)(CCCC)CCCC : call = ?
inactive

For O=C1C2C=CC(n3[nH]c(=O)n(Cc4ccccc4)c3=O)CC2C(=O)N1c1cccc(Cl)c1 (stereo not drawn) , what call appears in the results of this test?
inactive

Per the assay record, what outcome was assigned to COc1cc2oc(-c3ccc4c(c3)OCO4)c(OC)c(=O)c2c(O)c1OC ?
inactive

Recorded call for CCOP(=O)(OCC)[C@H](O)c1ccsc1 ?
inactive

Each compound tested received a call. Report the one for CC1=CC(=O)CC2(C)CC[C@@H]3C[C@]12OC3(C)C (stereo partly drawn) .
inactive

Recorded test outcome, item COc1ccc(Cc2c3cc(O)c([O-])cc3cc[n+]2C)cc1
inactive

Outcome? Cn1c(=O)n(-c2c3ccccc3c(Cl)c3ccccc23)n(C(C)(C)C)c1=O
inactive

How was Cc1ccc2c(O)cc(-c3cc4ccccc4s3)nc2n1 classified in this test?
inactive

Per the records of this test, what outcome belongs to O=C1NC(NCc2ccc(F)cc2)=N/C1=C\c1ccccc1Cl ?
inactive

Dear all, I need the recorded test outcome for O=C(c1ccsc1)c1cc2c(s1)C(=O)c1ccsc1C2=O , thank you.
active

Called result for COC(=O)C1(Cc2ccc3c(c2)CCC3)Cc2ccc3c(c2C1O)CCC3 (stereo not drawn)
inactive

In this assay, the call recorded for O=c1cccc(Cl)[nH]1 was what?
inactive

What call does the record list for CCCCNc1nc(N)nc(Nc2ccc(Br)cc2)c1N=O ?
inactive

Kindly provide the recorded test outcome for the following compound: OC(c1ccccc1)C(F)(F)c1nc2ccccc2o1 (stereo not drawn)
inactive

For Cc1c(C(=O)C/C(=N/NC(=O)c2ccccc2O)C(=O)Nc2ccccc2C(C)C)[n+]([O-])c2ccccc2[n+]1[O-] , which call appears in the assay record?
inactive

Please let me know the test result on file for Nc1nc(N)c(N=O)c(Nc2ccc(O)cc2)n1 .
inactive

Name the outcome recorded for CCOC(=O)N1CCNCCN(C(=O)OCC)CCNCC1 in the assay.
inactive

What did this assay record as the result for O=Cc1coc2ccccc2c1=O ?
inactive

I'd appreciate the recorded outcome for Sc1ncc(-c2cncc(-c3cnc(S)nc3)n2)cn1 from this test.
inactive

# lookup: test call for COC(=O)[C@H](Cc1ccccc1)NP(=O)(O)OCC1OC(n2cc(C)c(=O)[nH]c2=O)CC1N=[N+]=[N-] (stereo partly drawn)
inactive

Please share the test call associated with CCOC(=O)C(=O)N/N=C1\C(=O)Nc2ccccc21 .
inactive

Identify the outcome logged in this assay for the compound shown: O=C1C2=Cc3ccccc3OC2(O)Oc2cc3ccccc3cc21 (stereo not drawn)
inactive

Entry O=C(O/N=c1/ccc(=O)/c(=N\OC(=O)c2ccccc2)c1=O)c1ccccc1 : call = ?
inactive

Just for reference, ChEMBL document CHEMBL1201862 is where these values come from.
